TGT: CCDC6-RET (Homo sapiens, UniProt P07949+Q16204+Q96SW2)
Construct: CCDC6 (natural N-terminal fusion partner, UniProt Q16204); endogenous in cells; host or cells: TPC-1 (parental, papillary thyroid carcinoma)
Sequence (Q16204+P07949 fused): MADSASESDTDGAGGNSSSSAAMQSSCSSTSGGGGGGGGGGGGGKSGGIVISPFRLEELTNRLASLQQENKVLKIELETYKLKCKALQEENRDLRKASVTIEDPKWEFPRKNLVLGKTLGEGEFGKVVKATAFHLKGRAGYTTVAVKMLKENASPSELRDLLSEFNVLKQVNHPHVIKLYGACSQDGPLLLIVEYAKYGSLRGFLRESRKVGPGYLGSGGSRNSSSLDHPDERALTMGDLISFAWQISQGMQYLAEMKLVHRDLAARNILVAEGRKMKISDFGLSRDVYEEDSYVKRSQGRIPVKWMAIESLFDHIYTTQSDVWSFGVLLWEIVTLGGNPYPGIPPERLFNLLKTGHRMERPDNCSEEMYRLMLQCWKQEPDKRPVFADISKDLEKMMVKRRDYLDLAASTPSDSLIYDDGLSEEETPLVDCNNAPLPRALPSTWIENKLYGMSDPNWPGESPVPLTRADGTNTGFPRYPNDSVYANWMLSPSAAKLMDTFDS
Sequence (Q96SW2 whole entry, the tested form may be a part): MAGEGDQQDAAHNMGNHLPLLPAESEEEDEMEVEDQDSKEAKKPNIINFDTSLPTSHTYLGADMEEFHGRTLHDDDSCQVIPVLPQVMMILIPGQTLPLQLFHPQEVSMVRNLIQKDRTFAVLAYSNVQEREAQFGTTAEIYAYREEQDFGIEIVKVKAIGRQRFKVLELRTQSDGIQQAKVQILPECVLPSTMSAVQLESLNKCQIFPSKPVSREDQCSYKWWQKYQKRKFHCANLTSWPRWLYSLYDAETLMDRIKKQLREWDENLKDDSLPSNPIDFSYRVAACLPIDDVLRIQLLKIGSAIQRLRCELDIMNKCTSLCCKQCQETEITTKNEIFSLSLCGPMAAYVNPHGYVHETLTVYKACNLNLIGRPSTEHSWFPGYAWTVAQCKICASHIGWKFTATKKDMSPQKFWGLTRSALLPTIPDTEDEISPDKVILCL
Sequence (Q16531 whole entry partner, the tested form may be a part): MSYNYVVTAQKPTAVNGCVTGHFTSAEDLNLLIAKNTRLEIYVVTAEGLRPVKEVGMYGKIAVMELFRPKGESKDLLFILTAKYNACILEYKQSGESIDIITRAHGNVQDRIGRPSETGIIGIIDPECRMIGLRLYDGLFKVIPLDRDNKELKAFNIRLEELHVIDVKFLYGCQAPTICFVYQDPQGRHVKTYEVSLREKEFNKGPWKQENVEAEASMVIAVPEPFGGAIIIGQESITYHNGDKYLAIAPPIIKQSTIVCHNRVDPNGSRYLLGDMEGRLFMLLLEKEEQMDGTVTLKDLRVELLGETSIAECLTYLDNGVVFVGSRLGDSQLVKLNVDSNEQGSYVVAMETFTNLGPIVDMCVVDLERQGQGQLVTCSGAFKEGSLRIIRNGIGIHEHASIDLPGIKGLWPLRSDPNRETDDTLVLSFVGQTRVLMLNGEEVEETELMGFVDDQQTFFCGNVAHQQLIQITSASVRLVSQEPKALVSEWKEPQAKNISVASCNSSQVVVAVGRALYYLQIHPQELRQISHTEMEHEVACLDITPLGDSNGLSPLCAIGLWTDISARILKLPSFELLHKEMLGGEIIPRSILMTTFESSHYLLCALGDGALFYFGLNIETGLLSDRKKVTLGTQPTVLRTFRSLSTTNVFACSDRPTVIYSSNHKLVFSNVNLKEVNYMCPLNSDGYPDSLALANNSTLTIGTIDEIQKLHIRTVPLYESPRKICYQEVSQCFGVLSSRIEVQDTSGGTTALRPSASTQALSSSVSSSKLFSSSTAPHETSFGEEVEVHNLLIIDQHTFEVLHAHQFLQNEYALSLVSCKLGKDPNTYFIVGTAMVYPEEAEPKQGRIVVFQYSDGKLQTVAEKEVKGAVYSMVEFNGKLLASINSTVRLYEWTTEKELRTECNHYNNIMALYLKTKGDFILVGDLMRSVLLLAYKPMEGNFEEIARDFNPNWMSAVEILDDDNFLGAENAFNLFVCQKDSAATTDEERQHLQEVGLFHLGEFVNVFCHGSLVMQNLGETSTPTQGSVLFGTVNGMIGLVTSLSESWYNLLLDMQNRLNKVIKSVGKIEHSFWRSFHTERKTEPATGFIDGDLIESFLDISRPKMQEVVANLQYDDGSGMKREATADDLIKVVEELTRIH
PROCEDURE_TEXT: Cellular RET degradation, AlphaLISA, TPC-1 cell line
Assay type: cell-based
MEASUREMENT_CONTEXT: TPC1, human, 24 h, read-out: Cell Density TPC-1/CCDC6-RET Ymax %
MEASURED_PROPERTY: Dmax

COMPOUND: CCOc1cc(-c2ccc(N3CCC(COCc4cn(CCCCN5CCN(c6ccc7c(c6)CN(C6CCC(=O)NC6=O)C7=O)CC5)nn4)(NC(=O)c4cc(F)ccc4F)CC3)nc2)c2c(C#N)cnn2c1 (stereo not drawn)
MEASURED_PROPERTY: Dmax
RESULT: > 90%

COMPOUND: CCOc1cc(-c2ccc(N3CCC(CN4CCN(C(=O)CCCN5CCN(c6ccc7c(c6)CN(C6CCC(=O)NC6=O)C7=O)CC5)CC4)(NC(=O)c4cc(F)ccc4F)CC3)nc2)c2c(C#N)cnn2c1 (stereo not drawn)
MEASURED_PROPERTY: Dmax
RESULT: 60 to 90%

COMPOUND: CCOc1cc(-c2ccc(N3CCC(CN4CCN(C(=O)CCN5CCN(c6ccc7c(c6)C(=O)N(C6CCC(=O)NC6=O)C7)CC5)CC4)(NC(=O)c4cc(F)ccc4F)CC3)nc2)c2c(C#N)cnn2c1 (stereo not drawn)
MEASURED_PROPERTY: Dmax
RESULT: > 90%
